B1: ALDH8A1 (parent)
chain: WSSRSPQERSRVLNQVADLLEQSL

# Variants of: B1
# Procedure details: protein stability index of a GFP-peptide fusion (GPS, HEK-293T) (PSI 1-6); higher = more stable;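 further: lentivirally expressed fusions sorted by FACS into six bins by GFP to DsRed ratio, PSI derived from sequencing read proportions per bin multiplied by bin number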
# Condition: c terminus: a fixed tail appended
Reported protein stability index values are given for each entry in this list.
Answer as a number with no unit attached.

Worked examples, 3 variants total:
Changes | protein stability index
P6I | 2.44
R4C | 1.68
E21K | 1.61

Which protein stability index value is on record for W1N ?
3.61

Any idea what protein stability index was measured for S2H ?
2.56

For R9S , what is its reported protein stability index?
2.87

If you can, please state the reported protein stability index value of V16P .
3.62

Record request: protein stability index value, item R9Q
2.24

Return reported protein stability index; argument: E8W
2.36

Given the variant P6T , what is its reported protein stability index?
3.1

Entry V12D : reported protein stability index = ?
3.85

Given V12I , state its recorded protein stability index.
1.98
